STUDY SYSTEM: Corticotropin-releasing factor receptor 1 (Rattus norvegicus, UniProt P35353)
Sequence (P35353 whole entry): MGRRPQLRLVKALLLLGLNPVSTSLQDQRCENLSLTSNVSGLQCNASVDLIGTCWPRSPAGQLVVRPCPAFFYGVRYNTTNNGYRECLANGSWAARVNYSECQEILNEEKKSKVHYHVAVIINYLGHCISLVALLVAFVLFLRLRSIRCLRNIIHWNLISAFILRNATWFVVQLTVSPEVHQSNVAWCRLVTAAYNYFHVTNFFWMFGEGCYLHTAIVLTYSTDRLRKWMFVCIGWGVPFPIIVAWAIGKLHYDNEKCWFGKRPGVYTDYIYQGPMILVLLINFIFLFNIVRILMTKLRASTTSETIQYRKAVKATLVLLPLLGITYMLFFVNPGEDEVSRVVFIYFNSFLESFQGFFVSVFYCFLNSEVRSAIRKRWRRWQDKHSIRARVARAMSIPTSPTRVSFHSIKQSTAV
ASSAY COMMENT: Antagonist activity at rat CFR1R
pIC50: −log10 of the molar value.
TEST READOUT: pIC50

Below: 3 compounds and their reported pIC50.
CCC(C1CC1)n1c(=O)c(C)nc2c(-c3cc(C)c(C)c(C)c3C)ccnc21 (racemic): 6.47
CC[C@H](C1CC1)n1c(=O)c(C)nc2c(-c3ccc(OC)cc3C)ccnc21: 7.96
CCC(C1CC1)n1c(=O)c(C)nc2c(-c3cc(F)c(N(C)C)cc3Cl)ccnc21 (racemic): 9.09

(1) CCCC(C)n1c(=O)c(C)nc2c(-c3ccc(Cl)cc3Cl)ccnc21 (stereo not given)
(2) Cc1nc2c(-c3ccc(Cl)cc3Cl)ccnc2n(C(C)C(C)C)c1=O (stereo not given)
q: Lab log: flag the item ( 1 or 2 ) with the smaller pIC50 figure. Respond with the label that goes with your answer.
a: 2

Source of measurements: ChEMBL document CHEMBL2057151
